protocol description: NCI Yeast Anticancer Drug Screen. Data for the mlh1 rad18 strain (AID 175)
condition set: S. cerevisiae mlh1 rad18 strain growth inhibition; at 50.0 µM; stronger effect = higher value
This is part of a sample that, as a whole, favours compounds with a hit. Of some 79,000 tested, about 15% had one in any assay.
parameter: growth inhibition (%)

{"compound": "CC(C)CC(NC(=O)C(CS)NC(=O)CN1C(=O)CCC1=O)C(N)=O (stereo not given)", "readout unit": "%", "observed measurement": 19.8}
{"compound": "CCCC1CC(=O)NC1C(=O)O (stereo not given)", "readout unit": "%", "observed measurement": -24.4}
{"compound": "O=C(NC12CC3CC(CC(C3)C1)C2)C(=O)c1c[nH]c2ccc(Br)cc12", "readout unit": "%", "observed measurement": -52.4}
{"compound": "O=C(O)C(Cl)(c1ccccc1)c1ccccc1", "readout unit": "%", "observed measurement": -12.8}
{"compound": "CC(=O)OCCOCNC(=S)NN", "readout unit": "%", "observed measurement": -4.8}
{"compound": "O=c1ccn2n1Cc1ccccc1C2", "readout unit": "%", "observed measurement": -20.6}
{"compound": "CCC(C(C)O)[N+](=O)[O-] (stereo not given)", "readout unit": "%", "observed measurement": 7.75}
{"compound": "CC(C)C(C)(O)c1ccccc1 (stereo not given)", "readout unit": "%", "observed measurement": 0.9}
{"compound": "O=S(=O)(Nc1cc(Cl)c(NS(=O)(=O)c2ccccc2)c(S(=O)(=O)c2ccccc2)c1Cl)c1ccccc1", "readout unit": "%", "observed measurement": 65}
{"compound": "CN(C)C(=S)/N=c1\\ssc(=S)n1C1CCCCC1", "readout unit": "%", "observed measurement": -11.5}
{"compound": "Cc1cccc(C)c1N=Nc1ccc(O)c(CN(C)C)c1", "readout unit": "%", "observed measurement": -8.85}
{"compound": "CCOC(=O)c1nc2ccc(C(F)(F)F)cc2nc1NCc1ccc(OC)cc1", "readout unit": "%", "observed measurement": -15.7}
{"compound": "COc1ccc(C(=O)/C=C/c2ccc(OCC(=N)N)cc2)cc1", "readout unit": "%", "observed measurement": -23.6}
{"compound": "CC(C(=O)O)C1(O)CCCCC1 (stereo not given)", "readout unit": "%", "observed measurement": -8.4}
{"compound": "CC(=O)OCCc1ccc2c(c1)OCO2", "readout unit": "%", "observed measurement": -6.15}
{"compound": "Cc1nc(/N=C(\\N)Nc2ccc(Cl)c(Cl)c2)[nH]c(=O)c1Cc1ccccc1", "readout unit": "%", "observed measurement": 3.65}
{"compound": "CCc1ccc(O)c(CN2CCN(Cc3cc(CC)ccc3O)CC2)c1", "readout unit": "%", "observed measurement": 17.1}
{"compound": "Clc1ccc(C(Cl)(c2ccc(Cl)cc2)C(Cl)(Cl)Cl)cc1", "readout unit": "%", "observed measurement": 11.8}
{"compound": "COC(=O)c1nnn(-c2ccc(Cl)cc2Cl)c1N", "readout unit": "%", "observed measurement": 14}
{"compound": "O=C1C=CC(=CC=C2C=CN(CCCCCCO)C=C2)C=C1", "readout unit": "%", "observed measurement": 16.1}
{"compound": "S=C([S-])[P+](C1CCCCC1)(C1CCCCC1)C1CCCCC1", "readout unit": "%", "observed measurement": -39.2}
{"compound": "O=C(O)C1CC2(CCC1c1ccccc1)SCCS2 (stereo not given)", "readout unit": "%", "observed measurement": -9.85}
{"compound": "Cc1cc2[nH]c(=O)c(=O)[nH]c2cc1C", "readout unit": "%", "observed measurement": 2.55}
{"compound": "CC1=C(/C=C/C(C)=C/C=C/C(C)=C/C=C/C=C(C)/C=C/C=C(C)/C=C/C=C(C)/C=C/C=C(\\C)C(=O)O)C(C)(C)CCC1", "readout unit": "%", "observed measurement": -2.1}
{"compound": "NC(CSS(=O)(=O)c1ccccc1)C(=O)O (stereo not given)", "readout unit": "%", "observed measurement": 0.3}
